# maps each entry to its T½
- Tested On: T1, hGCGR-mmh (human)
- T1 construct: also called REGN547; monovalent hGCGR
- T1 chain: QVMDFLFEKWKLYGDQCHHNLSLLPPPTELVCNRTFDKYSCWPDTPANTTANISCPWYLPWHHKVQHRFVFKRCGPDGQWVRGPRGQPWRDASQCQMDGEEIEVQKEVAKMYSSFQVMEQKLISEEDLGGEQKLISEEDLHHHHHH
- Assay Protocol: SPR Biacore T100, 25C, mAb captured, antigen flowed
# value in min; strip the unit string

See these solved cases before continuing.
- H4H1339P (antibody, V domains shown, Fully human anti-GCGR antibody; the controls are called isotype-matched hIgG4) VH: EVQLVESGGGMVQPGGSLRLSCAASGFTSSNYDMHWVRQATGKGLEWVSSIDTAGDTYYPDSVKGRFIISRENAKNSLYLQMNSLRAGDTAVYYCTREPRNYEILTGHYHYHGMDIWGQGTTVTVS VL: AIQMTQSPSSLSASVGDRVTITCRASQAIRNDLGWYQQKPGKAPKLLIYTAFSLQSGVPSRFSGSKSGTDFTLTISSLQPEDFATYYCLQDYTNPRTFGQGTKVEIK: 22
- H4H1765N (antibody, V domains shown, Anti-GCGR antibody from hybridoma; the controls are called isotype-matched hIgG4) VH: EEQLVESGGDLVQPGGSLRLSCAASGFTLSSYEMNWVRQAPGKGLEWVSYISRGGSLIHYTDSVKGRFTISRDNAKNSLYLQMNSLRAEDTAVYYCVRDPAARYHYYYHGMDVWGQGTTVTVSS VL: DIVMTQSPLSLPVTPGEPASISCRSSQSLLHNNGYNYLDWYLQKPGQSPQLLIYLGSSRASGVPDRFSGSGSGTDFILKISRVEAEDVGVYYCMQALQTPWTFGRGTKVEIK: 379

With those in mind, consider the next binder.
Ask | // Input: H4H1327P (antibody, V domains shown, also called anti-GCGR (hIgG4) antibody designated H4H1327P) VH: EVQLVESGGGLVQPGGSLRLSCAASGFTFSNYLMNWVRQAPGKGLEWLANIQEDGIEKYYVDSVKGRFTISRDNAKNSLYLQMNSLRAEDTAVYYCAREPSHYDILTGYDYYYGMDVWGQGTTVTVS VL: DIQMTQSPSSLSASVGDRVTITCRASQGIRNDLGWYQQKPGKAPKRLIYAASSLQSGVPSRFSGSGSGTEFILTVSSLQPEDFATYYCLQYNSNPFTFGPGTKVDIK . Output its T½ only.
Reply | 33
